Where do these numbers come from? They come from patent US20070207093A1.

Below: a set of entries, each annotated with reported inhibition at 10 µM.
tested target: human TRPM5 ion channel (Homo sapiens, UniProt Q9NZQ8)
Construct: expressed in transfected cells
Sequence (Q9NZQ8 whole entry): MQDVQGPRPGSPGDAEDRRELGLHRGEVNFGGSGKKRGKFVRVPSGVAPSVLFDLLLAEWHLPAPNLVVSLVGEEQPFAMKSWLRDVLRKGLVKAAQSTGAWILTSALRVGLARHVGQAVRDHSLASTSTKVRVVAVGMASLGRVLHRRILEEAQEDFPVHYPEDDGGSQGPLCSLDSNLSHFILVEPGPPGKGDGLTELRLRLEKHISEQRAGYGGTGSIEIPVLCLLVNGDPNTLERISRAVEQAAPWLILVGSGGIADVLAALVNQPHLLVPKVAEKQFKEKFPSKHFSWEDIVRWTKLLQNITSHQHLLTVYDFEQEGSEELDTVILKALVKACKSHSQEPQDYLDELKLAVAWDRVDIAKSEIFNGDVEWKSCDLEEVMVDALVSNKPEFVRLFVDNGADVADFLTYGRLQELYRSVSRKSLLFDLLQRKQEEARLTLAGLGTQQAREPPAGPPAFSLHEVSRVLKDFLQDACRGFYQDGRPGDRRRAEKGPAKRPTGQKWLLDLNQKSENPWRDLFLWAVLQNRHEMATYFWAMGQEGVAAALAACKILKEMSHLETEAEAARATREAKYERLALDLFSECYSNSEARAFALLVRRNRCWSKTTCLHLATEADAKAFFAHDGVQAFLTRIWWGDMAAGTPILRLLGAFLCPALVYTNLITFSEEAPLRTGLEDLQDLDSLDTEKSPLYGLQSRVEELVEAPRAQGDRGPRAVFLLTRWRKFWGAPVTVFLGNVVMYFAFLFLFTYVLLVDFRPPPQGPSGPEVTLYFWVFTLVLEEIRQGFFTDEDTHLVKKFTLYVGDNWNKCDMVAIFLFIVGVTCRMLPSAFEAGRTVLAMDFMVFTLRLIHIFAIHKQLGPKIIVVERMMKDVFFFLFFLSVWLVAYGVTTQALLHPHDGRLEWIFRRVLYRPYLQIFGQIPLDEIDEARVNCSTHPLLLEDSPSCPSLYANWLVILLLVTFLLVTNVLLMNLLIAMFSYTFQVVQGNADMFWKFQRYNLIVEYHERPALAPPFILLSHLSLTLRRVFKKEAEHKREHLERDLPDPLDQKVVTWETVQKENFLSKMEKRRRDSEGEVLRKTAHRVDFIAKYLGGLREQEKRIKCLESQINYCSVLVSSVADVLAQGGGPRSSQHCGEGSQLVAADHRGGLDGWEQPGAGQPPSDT
assay remarks: TRPM5 FLIPR membrane potential screening assay (ATP stimulation)
Format: cell-based
details: 10 μM compound; HEK293 cells stably expressing human TRPM5; 3 μM ATP stimulation; versus negative control wells; read-out: TRPM5 Activity (percent inhibition)
Experimental: The activity of human TRPM5 ion channel was measured in live cells on a fluorescent imaging plate reader (FLIPR). […] This influx causes a change in the membrane potential of the cell which can be monitored as a change in the fluorescent signal from voltage-dependent (membrane potential) fluorescent dyes. […] Unless otherwise indicated, the data in the table below were determined using the three assays described above, providing percent inhibition data at 10 μM.
Numbers only here, please. The scale is %.

Examples with their reported inhibition at 10 µM follow.
>>> numeric_result("O=C(O)c1ccccc1N/N=C(\\N=N\\c1ccccc1)c1ccccc1 [Example 7]")
83
>>> numeric_result("CN1/C(=C\\C=N\\Nc2ccc([N+](=O)[O-])cc2)C(C)(C)c2ccccc21 [Example 11]")
67

Task item: Data request, read-out inhibition at 10 µM, for CCN(CCO)c1ccc(N/N=C2\C(=O)C=Cc3ccccc32)cc1 [Example 18]
Reply: 87
